Where do the numbers come from? From patent US10800792B2.

TGT: unphosphorylated-BTK kinase domain (UP-BTK), GST-tagged human BTK (389-659aa) (Homo sapiens (Human), UniProt Q06187)
Sequence (Q06187 389-659): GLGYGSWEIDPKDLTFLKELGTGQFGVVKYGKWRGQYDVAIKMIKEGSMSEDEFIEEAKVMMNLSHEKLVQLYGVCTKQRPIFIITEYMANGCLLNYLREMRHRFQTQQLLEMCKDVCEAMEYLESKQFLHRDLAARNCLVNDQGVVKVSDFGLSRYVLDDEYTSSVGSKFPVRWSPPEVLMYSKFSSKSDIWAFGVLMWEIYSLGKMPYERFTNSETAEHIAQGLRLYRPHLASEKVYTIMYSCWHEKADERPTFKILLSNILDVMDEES
METHOD NOTES: BTK kinase Lanthascreen binding assay
CONDITION SET: unphosphorylated-BTK kinase domain, 50 nM Tracer 236, 60 minutes; pIC50 = negative log of the IC50 in molar
Give BTK_I_binding pIC50 for every item shown.
One number for each entry.

{"columns": ["COMPOUND", "BTK_I_binding pIC50"],
 "data": [
  ["C=CC(=O)N1CCC[C@@H](NC(=O)c2sc3nccc4c3c2NC(=O)N4Cc2ccc(Oc3ccccc3)cc2)C1", 5.1],
  ["C=CC(=O)N1CC[C@@H](NC(=O)c2sc3nccc4c3c2NC(=O)N4c2ccc(Oc3ccccc3)nn2)C1", 5.9],
  ["Cc1cc(Oc2cc(F)cc(F)c2)ccc1N1C(=O)Nc2c(C(=O)N[C@@H]3CCCN(C)C3)sc3nccc1c23", 6.2],
  ["C=CC(=O)N1CCC[C@@H](NC(=O)c2sc3nccc4c3c2NC(=O)N4c2ccc(Oc3ccccc3)c(C)c2)C1", 7.5]
]}

Enquiry: For the compound Cc1cc(Oc2ccccc2)ccc1N1C(=O)Nc2c(C(=O)N[C@@H]3CCN(C)C3)sc3nccc1c23 (single isomer, unassigned) , give its reported BTK_I_binding pIC50.
Return: 6.9

* * *

TGT: unphosphorylated-BTK kinase domain (UP-BTK), GST-tagged human BTK (389-659aa) (Homo sapiens (Human))
METHOD NOTES: BTK kinase Lanthascreen binding assay
CONDITION SET: Lanthascreen tracer competition, 60 minutes incubation; pIC50 = negative log of the IC50 in molar
Description: BTK Kinase Lanthascreen Binding Assay: A BTK kinase lanthascreen binding assay monitors compound binding to unphosphorylated-BTK kinase domain (UP-BTK), by competing with a fluorescent labeled tracer. […] Data were analyzed using Xlfit™ version 5.3 from ID Business Solutions (Guildford), Microsoft Excel add-in. pIC50 refers to the negative log of the IC50 in molar
TEST READOUT: BTK_I_binding pIC50
Answers are plain numbers.

{"columns": ["COMPOUND", "QUANTITATIVE READOUT"],
 "data": [
  ["C=CC(=O)N1CCC[C@@H](NC(=O)c2sc3nccc4c3c2NC(=O)N4c2ccc(Oc3cccc(C)n3)cc2)C1", 7.5]
]}

Provide each entry's BTK_I_binding pIC50 from the list below.
1. C=CC(=O)N1CCC[C@@H](NC(=O)c2sc3nccc4c3c2NC(=O)N4c2cnc(Oc3ccccc3)cc2C)C1 [Example 667]
2. Cc1cc(Oc2cccc(COc3ccccc3C#N)c2)ccc1N1C(=O)Nc2c(C(=O)NC3CCNCC3)sc3nccc1c23
3. COCCC(=O)N1CCC[C@@H](NC(=O)c2sc3nccc4c3c2NC(=O)N4c2ccc(Oc3ccccc3)cc2C)C1
4. Cc1nc(Oc2ccccc2)ncc1N1C(=O)Nc2c(C(=O)N[C@@H]3CCNC3)sc3nccc1c23 (single isomer, unassigned)
5. CC(C)c1cccc(N2C(=O)Nc3c(C(=O)N[C@@H]4CCCNC4)sc4nccc2c34)c1

Return:
[7.9, 7.5, 7.7, 6.3, 5.9]

* * *

Exercise: for every item that follows, state its recorded BTK_I_binding pIC50.
TGT: unphosphorylated-BTK kinase domain (UP-BTK), GST-tagged human BTK (389-659aa) (Homo sapiens (Human), UniProt Q06187)
METHOD NOTES: BTK kinase Lanthascreen binding assay
CONDITION SET: unphosphorylated-BTK kinase domain, 50 nM Tracer 236, 60 minutes; pIC50 = negative log of the IC50 in molar
Numbers only.

{"columns": ["MOLECULE", "BTK_I_binding pIC50"],
 "data": [
  ["C/C=C\\C(=O)N1CCC[C@@H](NC(=O)c2sc3nccc4c3c2NC(=O)N4c2ccc(Oc3ccccc3)cc2C)C1 (single isomer, unassigned) [Example 475]", 6.1],
  ["C=CC(=O)N1CCC[C@@H](NC(=O)c2sc3nccc4c3c2NC(=O)N4c2ccc(OC3CCC3)cc2C)C1 (single isomer, unassigned) [Example 501]", 7.9],
  ["COC(C)(C)CC(=O)N1CCC[C@@H](NC(=O)c2sc3nccc4c3c2NC(=O)N4c2ccc(Oc3ccccc3)cc2C)C1 [Example 363]", 6.9]
]}

# map each molecule to its BTK_I_binding pIC50
1. COc1ccc(N2C(=O)Nc3c(C(=O)N[C@@H]4CCCN(C)C4)sc4nccc2c34)c(C)c1 [Example 340]
2. C=CC(=O)N1CC[C@@H](NC(=O)c2sc3nccc4c3c2NC(=O)N4c2ccnc(-c3ccccc3)c2)C1 [Example 567]

Return:
1. 5.3
2. 7.4
